The following compounds each carry a recorded IC50 for human ACC2 (Homo sapiens (Human), UniProt O00763).
parameter-measured: IC50 (nM)

[[record]]
compound = "COc1ccc2c(c1F)CCN(Cc1ccc([C@H](C)NC(C)=O)cc1)C2 [Example 1.080]"
value_observed = 396

[[record]]
compound = "C[C@H](NC(=O)[C@H]1C[C@H](F)C1)c1ccc(CN2CCc3cc(OCC4CC4(F)F)ccc3C2)cc1 (some centres unmarked) [Example 3.022]"
value_observed = 28

[[record]]
compound = "C[C@H](NC(=O)C(F)F)c1ccc(CN2CCc3cc(OCC4CC4(F)F)ccc3C2)cc1 (some centres unmarked) [Example 4.003]"
value_observed = 25

[[record]]
compound = "CC(O)C(=O)N[C@@H](C)c1ccc(CN2CCc3cc(OCC4CC4)ccc3C2)cc1 (some centres unmarked) [Example 2.021]"
value_observed = 168

[[record]]
compound = "C[C@H](NC(=O)Cc1cncnc1)c1ccc(CN2CCc3cc(OC[C@@H]4CC4(F)F)ccc3C2)cc1 [Example 2.026]"
value_observed = 81

[[record]]
compound = "CC(=O)Nc1nc(C)c(C(=O)N[C@@H](C)c2ccc(CN3CCc4c(cccc4C(F)(F)F)C3)cc2)s1 [Example 2.005]"
value_observed = 105

[[record]]
compound = "CCC(=O)Nc1nc(C)c(C(=O)N[C@@H](C)c2ccc(CN3Cc4ccc(OCC5CC5)cc4C(O)C3)cc2)s1 (some centres unmarked) [Example 3.040]"
value_observed = 189

[[record]]
compound = "COC1CN(Cc2ccc([C@H](C)NC(C)=O)cc2)Cc2ccc(OCC3CC3)cc21 (some centres unmarked) [Example 1.094]"
value_observed = 296

[[record]]
compound = "COc1c(OCC2CC(F)(F)C2)ccc2c1CCN(Cc1ccc([C@H](C)NC(=O)C3CC3)cc1)C2 [Example 1.056]"
value_observed = 51

[[record]]
compound = "COc1c(OC(C)C)ccc2c1CCN(Cc1ccc([C@H](C)NC(C)=O)cc1)C2 [Example 1.069]"
value_observed = 418

[[record]]
compound = "CC(=O)NC(C)c1ccc(CN2CCc3c(ccc(OCC4CC4)c3Br)C2)cc1 (centres unmarked) [Example 1.022]"
value_observed = 126

[[record]]
compound = "C[C@H](NC(=O)CO)c1ccc(CN2CCc3cc(OCC4CC4)ccc3C2)cc1 [Example 2.023]"
value_observed = 82

[[record]]
compound = "COc1c(OCC2CC(F)(F)C2)ccc2c1CCN(Cc1ccc([C@H](C)NC(C)=O)cc1)C2C (some centres unmarked) [Example 1.087]"
value_observed = 189

[[record]]
compound = "CC(=O)N[C@@H](C)c1ccc(CN2CC(=O)c3cc(OCC4CC4)ccc3C2)cc1 [Example 1.090]"
value_observed = 65

[[record]]
compound = "CC(O)C(=O)N[C@@H](C)c1ccc(CN2CCc3cc(OC[C@@H]4CC4(F)F)ccc3C2)cc1 (some centres unmarked) [Example 2.027]"
value_observed = 130

[[record]]
compound = "COc1c(OCC2CC2)ccc2c1CCN(Cc1ccc(C(C)NC(C)=O)cc1)C2 (centres unmarked) [Example 1.023]"
value_observed = 133

[[record]]
compound = "CC(=O)NC(C)c1ccc(CN2CCc3cc(OCC4CC(F)(F)C4)ccc3C2)cc1 (centres unmarked) [Example 1.015]"
value_observed = 47

[[record]]
compound = "CC(=O)N[C@@H](C)c1ccc(CN2CCc3cc(OCCC(F)F)ccc3C2)cc1 [Example 1.063]"
value_observed = 45

[[record]]
compound = "C[C@H](O)C(=O)N[C@@H](C)c1ccc(CN2Cc3ccc(OCC4CC4)cc3C(F)C2)cc1 (some centres unmarked) [Example 3.060]"
value_observed = 132

[[record]]
compound = "COc1c(OCC2CC(F)(F)C2)ccc2c1CCN(Cc1ccc([C@H](C)NC(C)=O)cc1)C2 [Example 1.075]"
value_observed = 55

[[record]]
compound = "CCCOc1ccc2c(c1)CCN(Cc1ccc([C@H](C)NC(=O)C3CC3)cc1)C2 [Example 1.041]"
value_observed = 57

[[record]]
compound = "CCC(=O)N[C@@H](C)c1ccc(CN2CCc3c(Br)cccc3C2)cc1 [Example 2.011]"
value_observed = 194

[[record]]
compound = "CC(=O)NC(C)c1ccc(CN2CCc3c(Cl)cccc3C2)cc1 (centres unmarked) [Example 1.004]"
value_observed = 206

[[record]]
compound = "CCC(=O)N[C@@H](C)c1ccc(CN2Cc3ccc(OCC4CC4)cc3C(F)C2)cc1 (some centres unmarked) [Example 3.024]"
value_observed = 22

[[record]]
compound = "C[C@H](NC(=O)C1CC1)c1ccc(CN2Cc3ccc(OCC4CC4(F)F)cc3C(F)C2)cc1 (some centres unmarked) [Example 1.060]"
value_observed = 29

[[record]]
compound = "CC(=O)N[C@@H](C)c1ccc(CN2Cc3ccc(OCC4CC4)cc3C(O)C2)cc1 (some centres unmarked) [Example 1.096]"
value_observed = 315


* * *

pIC50: −log10 of the molar value.
Measured pIC50 on human ACC2 (Homo sapiens (Human)) follows.
parameter-measured: pIC50

[[record]]
compound = "C[C@H](NC(=O)C1CCC1)c1ccc(CN2Cc3ccc(OCC4CC4)cc3C(O)C2)cc1 (some centres unmarked)"
value_observed = 6.31

[[record]]
compound = "COc1c(OCC(C)C)ccc2c1CCN(Cc1ccc([C@H](C)NC(C)=O)cc1)C2"
value_observed = 7.15

[[record]]
compound = "CC(=O)NC(C)c1ccc(CN2CCc3c(ccc(OCC4CC4(F)F)c3Cl)C2)cc1 (centres unmarked)"
value_observed = 7.31

[[record]]
compound = "CC(=O)NC(C)c1ccc(CN2CCc3cc(OCC(F)F)ccc3C2)cc1 (centres unmarked)"
value_observed = 6.21

[[record]]
compound = "CCOc1ccc2c(c1Cl)CCN(Cc1ccc(C(C)NC(C)=O)cc1)C2 (centres unmarked)"
value_observed = 6.58

[[record]]
compound = "C[C@H](NC(=O)C1CC(F)C1)c1ccc(CN2Cc3ccc(OCC4CC4(F)F)cc3C(O)C2)cc1 (some centres unmarked)"
value_observed = 6.39

[[record]]
compound = "COc1c(OCC2CC2)ccc2c1CCN(Cc1ccc([C@H](C)NC(C)=O)cc1)C2"
value_observed = 7.17

[[record]]
compound = "CC(=O)N[C@@H](C)c1ccc(CN2CCc3c(cccc3OC3CCC3)C2)cc1"
value_observed = 7.24


* * *

# test-target: human ACC2 (Homo sapiens (Human), UniProt O00763)
# Sequence (O00763 129-2458): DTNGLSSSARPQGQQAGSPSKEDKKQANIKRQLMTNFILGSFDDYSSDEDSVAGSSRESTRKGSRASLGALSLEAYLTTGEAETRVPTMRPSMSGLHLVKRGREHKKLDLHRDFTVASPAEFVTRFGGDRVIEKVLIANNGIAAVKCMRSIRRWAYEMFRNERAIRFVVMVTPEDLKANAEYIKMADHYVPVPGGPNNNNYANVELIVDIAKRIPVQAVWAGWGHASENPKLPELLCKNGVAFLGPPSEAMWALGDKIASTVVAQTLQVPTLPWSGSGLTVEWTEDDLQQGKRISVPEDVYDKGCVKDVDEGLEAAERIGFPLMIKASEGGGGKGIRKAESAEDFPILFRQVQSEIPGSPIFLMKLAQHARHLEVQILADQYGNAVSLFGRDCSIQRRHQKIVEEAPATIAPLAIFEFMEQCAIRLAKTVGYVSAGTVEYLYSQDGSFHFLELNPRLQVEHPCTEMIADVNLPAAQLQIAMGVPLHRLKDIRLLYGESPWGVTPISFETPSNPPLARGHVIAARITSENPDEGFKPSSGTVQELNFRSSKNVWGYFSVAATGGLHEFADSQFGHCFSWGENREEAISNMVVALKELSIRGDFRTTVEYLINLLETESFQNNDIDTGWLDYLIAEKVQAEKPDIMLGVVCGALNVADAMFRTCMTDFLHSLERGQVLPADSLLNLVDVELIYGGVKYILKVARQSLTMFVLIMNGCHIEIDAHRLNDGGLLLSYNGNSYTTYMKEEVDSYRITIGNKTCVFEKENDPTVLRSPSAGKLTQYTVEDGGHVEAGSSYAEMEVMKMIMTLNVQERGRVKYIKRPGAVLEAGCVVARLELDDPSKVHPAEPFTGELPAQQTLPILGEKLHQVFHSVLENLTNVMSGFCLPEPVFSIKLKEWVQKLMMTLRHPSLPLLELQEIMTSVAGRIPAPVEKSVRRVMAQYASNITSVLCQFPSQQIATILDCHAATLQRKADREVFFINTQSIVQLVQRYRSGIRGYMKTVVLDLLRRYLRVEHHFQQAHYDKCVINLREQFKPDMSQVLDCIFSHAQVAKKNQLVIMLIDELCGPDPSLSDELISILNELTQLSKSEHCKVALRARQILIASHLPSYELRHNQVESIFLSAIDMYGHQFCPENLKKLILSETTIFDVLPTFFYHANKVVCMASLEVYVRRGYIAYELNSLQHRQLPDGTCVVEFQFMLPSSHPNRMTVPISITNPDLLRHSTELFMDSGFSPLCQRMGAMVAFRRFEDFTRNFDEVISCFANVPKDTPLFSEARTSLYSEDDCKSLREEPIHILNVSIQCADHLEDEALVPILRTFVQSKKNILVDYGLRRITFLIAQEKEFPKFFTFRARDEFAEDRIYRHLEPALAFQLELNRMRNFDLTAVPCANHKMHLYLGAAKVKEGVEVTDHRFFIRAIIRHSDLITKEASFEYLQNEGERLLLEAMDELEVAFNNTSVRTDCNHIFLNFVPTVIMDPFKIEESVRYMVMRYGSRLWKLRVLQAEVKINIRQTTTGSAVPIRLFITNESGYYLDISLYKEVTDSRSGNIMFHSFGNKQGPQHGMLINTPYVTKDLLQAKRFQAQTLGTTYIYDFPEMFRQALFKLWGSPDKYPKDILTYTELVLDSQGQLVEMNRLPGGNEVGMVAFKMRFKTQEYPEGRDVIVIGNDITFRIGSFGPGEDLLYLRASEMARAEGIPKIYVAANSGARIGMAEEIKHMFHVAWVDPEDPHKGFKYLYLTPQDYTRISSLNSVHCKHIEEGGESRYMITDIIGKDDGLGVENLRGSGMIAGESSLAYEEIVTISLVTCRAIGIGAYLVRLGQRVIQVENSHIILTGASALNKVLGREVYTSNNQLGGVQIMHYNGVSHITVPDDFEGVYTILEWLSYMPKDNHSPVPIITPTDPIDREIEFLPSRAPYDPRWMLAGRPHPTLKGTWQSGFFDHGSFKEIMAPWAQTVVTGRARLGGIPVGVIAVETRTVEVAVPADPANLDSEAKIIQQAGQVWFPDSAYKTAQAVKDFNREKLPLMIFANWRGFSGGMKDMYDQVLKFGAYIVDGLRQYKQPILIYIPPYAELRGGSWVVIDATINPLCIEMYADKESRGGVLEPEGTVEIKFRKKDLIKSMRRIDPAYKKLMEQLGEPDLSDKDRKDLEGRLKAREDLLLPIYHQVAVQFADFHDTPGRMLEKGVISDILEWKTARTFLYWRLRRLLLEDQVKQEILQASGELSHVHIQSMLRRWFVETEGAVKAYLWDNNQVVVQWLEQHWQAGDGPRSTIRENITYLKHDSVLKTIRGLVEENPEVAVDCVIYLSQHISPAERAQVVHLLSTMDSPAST
# measurement-protocol: ACC2 assay: spectrophotometric 384 well assay (coupled lactate dehydrogenase/pyruvate kinase)
# Type: biochemical
# condition-context: hACC2 construct lacking the 128 N-terminal amino acids, 25° C., 340 nm
pIC50: −log10 of the molar value.
Given measured pIC50, output condition met if it is greater than or equal to 7 and condition not met if not.

[[record]]
molecule = "CC(=O)NC(C)c1ccc(CN2CCc3cc(OC(F)(F)F)ccc3C2)cc1 (stereo not shown)"
discrete_label = "condition not met"

[[record]]
molecule = "CC(=O)NC(C)c1ccc(CN2CCc3c(cccc3OCC3CC3(F)F)C2)cc1 (stereo not shown)"
discrete_label = "condition not met"

[[record]]
molecule = "C[C@H](NC(=O)[C@@H]1CC[C@H](NC(=O)OC(C)(C)C)C1)c1ccc(CN2Cc3ccc(OCC4CC4)cc3C(F)C2)cc1 (stereo partly shown)"
discrete_label = "condition not met"

[[record]]
molecule = "CC(=O)Nc1nc(C)c(C(=O)N[C@@H](C)c2ccc(CN3Cc4ccc(OCC5CC5(F)F)cc4C(F)C3)cc2)s1 (stereo partly shown)"
discrete_label = "condition met"

[[record]]
molecule = "C[C@H](NC(=O)Cc1cnccn1)c1ccc(CN2Cc3ccc(OCC4CC4)cc3C(F)C2)cc1 (stereo partly shown)"
discrete_label = "condition met"

[[record]]
molecule = "CCOc1ccc2c(c1)CCN(Cc1ccc(C(C)NC(C)=O)cc1)C2 (stereo not shown)"
discrete_label = "condition not met"

[[record]]
molecule = "CNC(=O)N[C@@H](C)c1ccc(CN2CCc3cc(OCC4CC4(F)F)ccc3C2)cc1 (stereo partly shown)"
discrete_label = "condition met"

[[record]]
molecule = "CCC(=O)N[C@@H](C)c1ccc(CN2Cc3ccc(OCC4CC4(F)F)cc3C(F)C2)cc1 (stereo partly shown)"
discrete_label = "condition met"

[[record]]
molecule = "C[C@H](NC(=O)[C@H]1C[C@H](F)C1)c1ccc(CN2Cc3ccc(OCC4CC4)cc3C(O)C2)cc1 (stereo partly shown)"
discrete_label = "condition not met"

[[record]]
molecule = "COc1ccc2c(c1F)CCN(Cc1ccc([C@H](C)NC(C)=O)cc1)C2C (stereo partly shown)"
discrete_label = "condition not met"

[[record]]
molecule = "CC(=O)N[C@@H](C)c1ccc(CN2CC(=O)c3cc(OCC4CC4(F)F)ccc3C2)cc1 (stereo partly shown)"
discrete_label = "condition met"

[[record]]
molecule = "CC(=O)N[C@@H](C)c1ccc(CN2Cc3ccc(OCC4CC4)cc3C(F)C2)cc1 (stereo partly shown)"
discrete_label = "condition met"

[[record]]
molecule = "COc1c(OC2CCC2)ccc2c1CCN(Cc1ccc([C@H](C)NC(C)=O)cc1)C2C (stereo partly shown)"
discrete_label = "condition not met"

